B1: EIF5 (parent)
chain: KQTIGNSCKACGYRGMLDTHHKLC

variants of: B1; test: protein stability index of a GFP-peptide fusion (GPS, HEK-293T) (PSI 1-6); higher = more stable; details: c terminus: a fixed tail appended;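 also: lentivirally expressed fusions sorted by FACS into six bins by GFP to DsRed ratio, PSI derived from sequencing read proportions per bin multiplied by bin number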
// n strictly below 3 in protein stability index; y otherwise

>>> discrete_label("N6Q")
"y"
>>> discrete_label("K1S")
"y"
>>> discrete_label("M16A")
"y"
>>> discrete_label("L23N")
"y"
>>> discrete_label("K9C")
"y"
>>> discrete_label("T3F")
"n"
>>> discrete_label("M16F")
"n"
>>> discrete_label("Y13H")
"n"
>>> discrete_label("H21D")
"y"
>>> discrete_label("D18W")
"n"
>>> discrete_label("K9Q")
"y"
>>> discrete_label("K1P")
"y"
>>> discrete_label("T3D")
"y"
>>> discrete_label("S7V")
"y"
>>> discrete_label("H20M")
"n"
>>> discrete_label("H20A")
"n"
>>> discrete_label("D18I")
"n"
>>> discrete_label("C11D")
"n"
